Experimental Protocol: Clearance from mouse blood following i.v. administration of 10 mg/kg
Format: ADME, organism-based
Parameters: dose 10 mg/kg, route intravenous
Experimental Setup: iv
Assay Metric: clearance (mL/min/kg)
Numbers only, in mL/min/kg.

Query: Quick one: clearance for O=C(NO)[C@H]1CCCS(=O)(=O)N1Cc1ccc(-c2ccncc2)cc1 ?
Response: 93.3

---

Experimental Protocol: Area under the curve of compound in mouse blood following i.v. administration of 10 mg/kg
Assay type: ADME, organism-based
Parameters: dose 10 mg/kg, route intravenous
Experimental Setup: iv
Assay Metric: AUC (µM·h)
Give bare numbers, in µM·h.

Query: Quick one: AUC for O=C(NO)[C@H]1CCCS(=O)(=O)N1Cc1ccc(-c2ccncc2)cc1 ?
Response: 3.77
